Tested on: SNB-75 CNS
experiment-notes: NCI tumour cell line growth inhibition, 48 h
Entry flag: true (1) if TGI reaches 9 µM; false (0) if it does not.

Lookup: State whether the measured TGI reaches 9 µM, counting equality as reaching it, for CC(C)NC(=O)OCc1c(COC(=O)NC(C)C)n(C)c2c1ccc1sccc12
Found: true (1)

Lookup: Confirm if TGI reported for the compound Cc1nc(N)nc(CCC(=O)Nc2cccc(C(F)(F)F)c2)c1-c1ccc(Cl)cc1 is 9 µM or above.
Found: true (1)

Lookup: Please indicate if the recorded TGI for CNCc1cccc2c1OCCOCCOCCN(C)S(=O)(=O)c1ccc(cc1)-c1cnc(N)c(n1)C(=O)N2 meets or exceeds 9 µM.
Found: true (1)

Lookup: Entry COc1ccc(OC)c(NCC(=O)n2nc(/C=C\c3ccc(O)c(OC)c3)cc2/C=C\c2ccc(O)c(OC)c2)c1 : is its TGI no less than 9 µM?
Found: true (1)

Lookup: Quick check, TGI >= 9 µM? CC(C)Oc1cccc(N2C(n3ccnc3)=Nc3ccncc3S2(=O)=O)c1
Found: true (1)

Lookup: Determine whether measured TGI meets or exceeds 9 µM for COc1nc2c(c(O)c(C)c(=O)n2OC2OCC(OC(C)=O)C(OC(C)=O)C2OC(C)=O)c(=O)n1C (stereo unspecified)
Found: true (1)

Lookup: Given COc1cc2ccc3c4cc(OC)c(OC)cc4c[n+](C)c3c2cc1O , state whether its TGI is at least 9 µM.
Found: true (1)

Lookup: # check: TGI of CCn1cc(C(=O)O)c(=O)c2cc(F)c(N3CCN(S(=O)(=O)c4cccc5ccccc45)CC3)cc21 is greater than or equal to 9 µM
Found: false (0)

Lookup: Hi, just wondering whether COc1ccc(C(=O)c2cc(OC)c(OC)c(OC)c2OC)cc1O shows TGI of 9 µM or higher.
Found: false (0)

Lookup: Answer whether TGI of COc1cc2c(N3CCN(C(=O)Nc4ccc(OC(C)C)cc4)CC3)ncnc2cc1OCCCN1CCCCC1 is greater than or equal to 9 µM.
Found: true (1)

Lookup: State whether the measured TGI reaches 9 µM, counting equality as reaching it, for c1ccc(C2=NC3OC2c2ccccc23)cc1 (stereo unspecified)
Found: true (1)

Lookup: Reported TGI at or above 9 µM? O=c1cc(O)cc2n1CCC2
Found: true (1)

Lookup: Is it the case that Cc1c(N2CCOCC2)nc2ccc(Cl)cc2c1-c1ccccc1 has TGI reaching or exceeding 9 µM?
Found: true (1)

Lookup: Does TGI meet or surpass 9 µM for COc1cc([C@@H]2c3cc4c(cc3[C@@H](NC(=O)c3ccc(C#N)cc3)C3COC(=O)[C@@H]32)OCO4)cc(OC)c1O (stereo partly specified) ?
Found: false (0)

Lookup: Threshold query (TGI >= 9 µM) on S=C(Cc1ccc2c(c1)Sc1ccccc1O2)N1CCOCC1
Found: true (1)

Lookup: Is reported TGI greater than or equal to 9 µM here: CCN(CC)CCCNc1ccc(C)c2sc3ccccc3c(=O)c12
Found: true (1)

Lookup: Textbook exercise: given the entry N#CNC(N)=NCc1ccccc1 , state whether its TGI is greater than or equal to 9 µM.
Found: true (1)

Lookup: Could you please find out whether Cc1ccc2cccc(-c3cccc4ccccc34)c2n1 has TGI that meets 9 µM or exceeds it?
Found: true (1)

Lookup: Can CCOC(=O)c1nc(C)oc1C(F)(F)F be said to have TGI at or above 9 µM?
Found: true (1)

Lookup: Exam item: decide whether the reported TGI for CSCC[C@@H](NC(=O)[C@H](CC(C)C)NC(=O)C(Cc1cnc[nH]1)NC(=O)CNC(=O)[C@@H](NC(=O)[C@H](C)NC(=O)[C@H](Cc1c[nH]c2ccccc12)NC(=O)[C@H](CCC(N)=O)NC(=O)[C@@H](N)CC(N)=O)C(C)C)C(N)=O (stereo partly specified) is at least 9 µM.
Found: true (1)

Lookup: Please indicate if the recorded TGI for CC(Br)C(=O)NC(CO)C(=O)O (stereo unspecified) meets or exceeds 9 µM.
Found: true (1)

Lookup: Has Cc1c(C(=N)C(C#N)C#N)c(=N)oc2c1ccc1ccccc12 a recorded TGI greater than or equal to 9 µM?
Found: true (1)

Lookup: Check this compound for TGI at or above 9 µM: Cc1c2cccc-2c2cc(O)c3ccccc3c2n1-c1ccc(N(C)C)cc1
Found: true (1)

Lookup: Does TGI meet or surpass 9 µM for NNC(=O)C(=O)N/N=C1/CCCC1C(=O)CCC(=O)Nc1ccc(Cl)cc1 (stereo unspecified) ?
Found: true (1)

Lookup: Kindly determine if TGI recorded for N#CC(C(=O)C(=O)Nc1c(Cl)cccc1Cl)c1ccccc1 (stereo unspecified) is above or exactly 9 µM.
Found: true (1)

Lookup: Could you please find out whether c1ccc(-c2[nH]ncc2-c2ccnc(-c3ccc(OCCn4ccnc4)cc3)c2)nc1 has TGI that meets 9 µM or exceeds it?
Found: true (1)

Lookup: Could you tell me if the measured TGI of Cc1ccc(S(=O)(=O)OCC/C(=C\[Si](C)(C)C)c2ccccc2)cc1 reaches 9 µM or more?
Found: true (1)

Lookup: Reported TGI reaches at least 9 µM for CCOC(=O)c1csc(NC(=O)C(C)N2CCCC2)n1 (stereo unspecified) ?
Found: true (1)

Lookup: Record COc1ccc2c(N)ncc(C#Cc3cc(C(=O)Nc4ccc(CN5CCN(C)CC5)c(C(F)(F)F)c4)cnc3C)c2c1 ; criterion: TGI no lower than 9 µM. Met?
Found: false (0)

Lookup: // inclusive: TGI at least 9 µM? input: CN(C)CCNC(=O)c1cccc2c1Nc1ccccc1S2
Found: true (1)

Lookup: Quick check: does O=C1c2cccc(Oc3ccccc3)c2C(=O)c2cccc(Oc3ccccc3)c21 have TGI greater than or equal to 9 µM?
Found: true (1)

Lookup: Given the entry N#Cc1nc2c(S(=O)(=O)c3ccc(Cl)cc3)c(N)n(Nc3cccc(Cl)c3)c2nc1C#N , answer whether its TGI meets or surpasses 9 µM.
Found: false (0)

Lookup: Hello, I need to know if CN(C)c1nc(Oc2nc(N(C)C)nc(N(C)C)n2)nc(N(C)C)n1 has measured TGI not below 9 µM. Thanks!
Found: true (1)

Lookup: Say whether COC(=O)CCC(NC(=S)N/N=C/c1cccs1)C(=O)OC (stereo unspecified) shows TGI of 9 µM or more.
Found: true (1)

Lookup: Is TGI for Nc1nc2c(c3cnccc13)C(c1ccc(Cl)c(Cl)c1)Cc1cnccc1-2 (stereo unspecified) at or above 9 µM?
Found: true (1)

Lookup: Say whether O=C(NCc1cccc(CNC(=O)Nc2nc3ccccc3[nH]2)c1)Nc1nc2ccccc2[nH]1 shows TGI of 9 µM or more.
Found: false (0)

Lookup: I'd appreciate it if you could say whether CC1(C)CC(=O)C2=C(C1)C(c1ccccc1Cl)C1C(=O)CC(C)(C)CC1(O)O2 (stereo unspecified) has TGI at least equal to 9 µM.
Found: true (1)

Lookup: Entry C[C@]12CCC3[C@@H](CCC45OC4C(=O)CC[C@]35C)C1Cc1cnn(-c3ccc(F)cc3)c1N2 (stereo partly specified) : is its TGI no less than 9 µM?
Found: true (1)

Lookup: # check: TGI of O=c1c(F)cn2c(=O)n1CCCCCCCn1c(=O)c(F)cn(c1=O)CCCCCCC2 is greater than or equal to 9 µM
Found: true (1)

Lookup: Given O=c1oc2ccc3ccccc3c2cc1-c1cn2ccsc2n1 , state whether its TGI is at least 9 µM.
Found: true (1)
